assay: amyloid nucleation score (Sup35N fusion, yeast selection) (log enrichment); library NNK1; higher = more nucleation; inactive = no reads after selection;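 note: zero at mode of non-aggregating sequences after 7 days selection at 30°C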
assay.readout: amyloid nucleation score

Consider the reported amyloid nucleation score for these substances:
# substance, amyloid nucleation score
rows = [
    ("GVLSICGML", -0.401),
    ("YWGFGYPMFLNINMCLTSPE", 6.21),
    ("IKNKGRYVFETPGL", 0.13),
    ("FWSYLSGLVGMYGQIVIKKA", 0.059),
    ("ILSIFLYWAILLRSCQYLYW", -0.949),
]

Memo: LWIQMLAWCSRCM , reported amyloid nucleation score: 1.65

Memo: GVADMAVRGQCSHYSVAWST , reported amyloid nucleation score: -1.07

Memo: YVHQRGNNTSAMLAWVLPRH , reported amyloid nucleation score: -0.766

Memo: AMLSIVSISAS , reported amyloid nucleation score: 1.39

Memo: VVSFLLHPCDFRSWFCGCIW , reported amyloid nucleation score: -0.226

Memo: TSKERSLCSKDVT , reported amyloid nucleation score: 0.393

---

assay: amyloid nucleation score (Sup35N fusion, yeast selection) (log enrichment); library NNK3; higher = more nucleation; inactive = no reads after selection
assay.readout: amyloid nucleation score

Consider the reported amyloid nucleation score for these substances:
# substance, endpoint.value
data = [
    ("PTDDGLSNRMKQMSGHRVLH", "inactive"),
    ("LMQDLENVS", "inactive"),
    ("VTVSPWLFFVWNDGLCSARL", 1.05),
    ("KGCNETWFVNPRGRYCWEFC", "inactive"),
    ("FDTVVLCWVIGIRIGPHNAL", "inactive"),
]

Memo: SQTLYLGARVNRMRYVFSAC , reported amyloid nucleation score: inactive

Memo: VMAELVSVKVAQVIVR , reported amyloid nucleation score: inactive

Memo: IIMSLLIALP , reported amyloid nucleation score: 0.653

---

experiment: amyloid nucleation score (Sup35N fusion, yeast selection) (log enrichment); library NNK3; higher = more nucleation; inactive = no reads after selection
assay.readout: amyloid nucleation score

# substance, assay.readout, endpoint.value
rows = [
    ("CFPASCIQ", "amyloid nucleation score", "inactive"),
    ("TLGTLSICLCIFRYPGKTEA", "amyloid nucleation score", "inactive"),
    ("FFNSVMIYGWS", "amyloid nucleation score", 0.07),
    ("SSLNSMIIIRFHTSKGHVCK", "amyloid nucleation score", 1.32),
    ("GVGNPGWAVLM", "amyloid nucleation score", "inactive"),
]

Memo: VESYPVGLY , reported amyloid nucleation score: 1.56

Memo: LDVLKMGIVV , reported amyloid nucleation score: inactive

Memo: YFRQFSVYYLFFNLMYILHA , reported amyloid nucleation score: inactive

Memo: SLKPLVYMGLST , reported amyloid nucleation score: inactive

Memo: SILLVMP , reported amyloid nucleation score: inactive

---

assay: amyloid nucleation score (Sup35N fusion, yeast selection) (log enrichment); library NNK1; higher = more nucleation; inactive = no reads after selection
Assign classes using reported amyloid nucleation score values and the ranges bin 0 = under -0.2, bin 1 = from -0.2 up to 0.7, bin 2 = 0.7 and over, please.

# substance, group
measured = [
    ("WRIEACFSNFARTIFLVSGW", "bin 0"),
    ("EANMIYFLNGANLHRFFKHF", "bin 2"),
    ("QRFHFLNRL", "bin 0"),
]

Shift focus to the following entry.
**Query** Bin this entry: SYYDSQYGLYGESVCL
**Result** bin 2
